molecular target: Kappa-type opioid receptor (Rattus norvegicus, UniProt P34975, E297A); assay: Displacement of [3H]diprenorphine from k-E297A-receptor expressed in HEK 293 cells
Sequence (P34975 whole entry E297A): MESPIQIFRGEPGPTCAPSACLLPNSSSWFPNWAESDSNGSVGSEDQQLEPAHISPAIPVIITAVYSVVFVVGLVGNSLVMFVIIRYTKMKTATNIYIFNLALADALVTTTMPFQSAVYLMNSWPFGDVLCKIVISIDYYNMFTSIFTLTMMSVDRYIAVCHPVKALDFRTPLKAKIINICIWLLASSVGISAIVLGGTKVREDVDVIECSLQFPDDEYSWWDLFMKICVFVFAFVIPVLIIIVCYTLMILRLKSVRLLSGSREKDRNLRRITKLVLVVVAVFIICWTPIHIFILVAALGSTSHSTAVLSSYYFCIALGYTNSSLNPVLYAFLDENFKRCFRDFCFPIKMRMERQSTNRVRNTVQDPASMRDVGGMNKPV
experimental_readout: pKi
pKi (log units): -log10 of the concentration in mol/L.

Some solved cases for reference:
>  <test_smiles>
N=C(N)Nc1ccc2[nH]c3c(c2c1)C[C@@]1(O)[C@H]2Cc4ccc(O)c5c4[C@@]1(CCN2CC1CC1)[C@H]3O5

>  <pKi>
8.41

$$$$
>  <test_smiles>
Oc1ccc2c3c1O[C@H]1c4[nH]c5ccccc5c4C[C@@]4(O)[C@@H](C2)N(CC2CC2)CC[C@]314

>  <pKi>
7.38

$$$$

// switching to the query compound
Lab note: compound CN1CC[C@]23c4c5ccc(O)c4O[C@H]2C(=O)C2(Cc4ccccc4C2)C[C@@]3(O)[C@H]1C5 tested on Kappa-type opioid receptor (Rattus norvegicus, UniProt P34975, E297A); recorded pKi was 6.53

----------
molecular target: Kappa-type opioid receptor (Rattus norvegicus, UniProt P34975, Y312A); assay: Displacement of [3H]diprenorphine from k-Y312A-receptor expressed in HEK 293 cells
Sequence (P34975 whole entry Y312A): as the sequence (P34975 whole entry E297A) above, with A297E, Y312A counted along it
experimental_readout: pKi
pKi (log units): -log10 of the concentration in mol/L.

>  <compound>
Oc1ccc2c3c1O[C@H]1c4[nH]c5c(c4C[C@@]4(O)[C@@H](C2)N(CC2CC2)CC[C@]314)C[C@@]1(O)[C@H]2Cc3ccc(O)c4c3[C@@]1(CCN2CC1CC1)[C@H]5O4 [NORBINALTORPHIMINE]

>  <system>
Kappa-type opioid receptor (Rattus norvegicus, UniProt P34975, Y312A)

>  <reported_result>
8.86

$$$$
>  <compound>
N=C(N)Nc1ccc2[nH]c3c(c2c1)C[C@@]1(O)[C@H]2Cc4ccc(O)c5c4[C@@]1(CCN2CC1CC1)[C@H]3O5 [GUANIDINONALTRINDOLE]

>  <system>
Kappa-type opioid receptor (Rattus norvegicus, UniProt P34975, Y312A)

>  <reported_result>
10.52

$$$$
>  <compound>
Oc1ccc2c3c1O[C@H]1c4[nH]c5ccccc5c4C[C@@]4(O)[C@@H](C2)N(CC2CC2)CC[C@]314 [NALTRINDOLE]

>  <system>
Kappa-type opioid receptor (Rattus norvegicus, UniProt P34975, Y312A)

>  <reported_result>
8.91

$$$$

// switching to the query compound
Record CN1CC[C@]23c4c5ccc(O)c4O[C@H]2C(=O)C2(Cc4ccccc4C2)C[C@@]3(O)[C@H]1C5 [SPIROINDANYLOXYMORPHONE] . Reported pKi: 7.26

----------
Attribute: Ki
biological target: Kappa-type opioid receptor (Rattus norvegicus)

Some solved cases for reference:
>  <test_smiles>
Oc1ccc2c3c1O[C@H]1c4[nH]c5c(c4C[C@@]4(O)[C@@H](C2)N(CC2CC2)CC[C@]314)C[C@@]1(O)[C@H]2Cc3ccc(O)c4c3[C@@]1(CCN2CC1CC1)[C@H]5O4

>  <experimental_readout>
Ki

>  <reported_result>
0.07 nM

$$$$
>  <test_smiles>
CN1CC[C@]23c4c5ccc(O)c4O[C@H]2C(=O)C2(Cc4ccccc4C2)C[C@@]3(O)[C@H]1C5

>  <experimental_readout>
Ki

>  <reported_result>
488 nM

$$$$

// switching to the query molecule
Record Oc1ccc2c3c1O[C@H]1c4[nH]c5ccccc5c4C[C@@]4(O)[C@@H](C2)N(CC2CC2)CC[C@]314 . Reported Ki: 25.5 nM

----------
biological target: Mu-type opioid receptor (Rattus norvegicus, UniProt P33535, W318A); test: Displacement of [3H]- diprenorphine from mu-W318A-receptor expressed in HEK 293 cells
Sequence (P33535 whole entry W318A): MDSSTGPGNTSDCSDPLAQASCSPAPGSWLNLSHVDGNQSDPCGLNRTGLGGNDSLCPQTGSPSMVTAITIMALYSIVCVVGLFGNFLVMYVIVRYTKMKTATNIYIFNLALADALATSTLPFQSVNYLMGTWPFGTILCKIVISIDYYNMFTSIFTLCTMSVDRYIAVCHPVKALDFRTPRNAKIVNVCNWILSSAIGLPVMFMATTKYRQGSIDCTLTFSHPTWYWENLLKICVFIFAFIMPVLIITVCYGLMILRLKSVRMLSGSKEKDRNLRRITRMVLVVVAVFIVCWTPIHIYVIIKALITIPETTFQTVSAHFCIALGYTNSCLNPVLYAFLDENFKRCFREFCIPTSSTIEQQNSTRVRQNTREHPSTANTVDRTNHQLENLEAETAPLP
Attribute: Ki

>  <test_smiles>
CN1CC[C@]23c4c5ccc(O)c4O[C@H]2C(=O)C2(Cc4ccccc4C2)C[C@@]3(O)[C@H]1C5

>  <Ki>
3.9 nM

$$$$

Lab note: compound N=C(N)Nc1ccc2[nH]c3c(c2c1)C[C@@]1(O)[C@H]2Cc4ccc(O)c5c4[C@@]1(CCN2CC1CC1)[C@H]3O5 tested on Mu-type opioid receptor (Rattus norvegicus, UniProt P33535, W318A); recorded Ki was 0.5 nM

----------
Attribute: pKi
target: Mu-type opioid receptor (Rattus norvegicus, UniProt P33535, K303E); assay: Displacement of [3H]- diprenorphine from mu-K303E-receptor expressed in HEK 293 cells
Sequence (P33535 whole entry K303E): as the sequence (P33535 whole entry W318A) above, with K303E, A318W counted along it
pKi (log units): -log10 of the concentration in mol/L.

>  <test_smiles>
N=C(N)Nc1ccc2[nH]c3c(c2c1)C[C@@]1(O)[C@H]2Cc4ccc(O)c5c4[C@@]1(CCN2CC1CC1)[C@H]3O5

>  <pKi>
10.05

$$$$

// switching to the query compound
Record CN1CC[C@]23c4c5ccc(O)c4O[C@H]2C(=O)C2(Cc4ccccc4C2)C[C@@]3(O)[C@H]1C5 . Reported pKi: 6.81
